# PROTOCOL_NOTES: Tissue distribution of SHR9146 in mice after oral gavage of 40 mg/kg
# Type: in vivo, ICR mice
# APPLIED_CONDITIONS: male, ICR, mouse, thyroid gland, po, 40 mg/kg, male, 1 h, 40 mg/kg oral gavage, Mean (n=3); read-out: SHR9146 concentration in thyroid gland
MEASUREMENT_TYPE: concentration at 1 h

Ask | Would you mind telling me what concentration at 1 h value was observed for "OCCn1cc(-c2ccc(N3CCC([C@H]4c5c(F)cccc5-c5cncn54)CC3)cc2)cn1" ?
Reply | 7010 ng/g

====

# PROTOCOL_NOTES: Tissue distribution of SHR9146 in mice after oral gavage of 40 mg/kg
# Assay type: in vivo, ICR mice
# APPLIED_CONDITIONS: male, ICR, mouse, testis, po, 40 mg/kg, male, 1 h, 40 mg/kg oral gavage, Mean (n=3); read-out: SHR9146 concentration in Testis
MEASUREMENT_TYPE: concentration at 1 h (ng/g)
The reply should be a number in ng/g, with the unit left off.

Ask | Would you mind telling me what concentration at 1 h value was observed for OCCn1cc(-c2ccc(N3CCC([C@H]4c5c(F)cccc5-c5cncn54)CC3)cc2)cn1 [SHR9146] ?
Reply | 4000

====

# PROTOCOL_NOTES: Tissue distribution of SHR9146 in mice after oral gavage of 40 mg/kg
# Type: in vivo, ICR mice
# APPLIED_CONDITIONS: male, ICR, mouse, spleen, po, 40 mg/kg, male, 6 h, 40 mg/kg oral gavage, individual mice; read-out: SHR9146 concentration in Spleen
MEASUREMENT_TYPE: concentration at 6 h (ng/g)
The reply should be a number in ng/g, with the unit left off.

Ask | Would you mind telling me what concentration at 6 h value was observed for OCCn1cc(-c2ccc(N3CCC([C@H]4c5c(F)cccc5-c5cncn54)CC3)cc2)cn1 [SHR9146] ?
Reply | 51

====

# PROTOCOL_NOTES: Tissue distribution of SHR9146 in mice after oral gavage of 40 mg/kg
# Assay type: in vivo, ICR mice
# APPLIED_CONDITIONS: female, ICR, mouse, plasma, po, 40 mg/kg, female, 6 h, 40 mg/kg oral gavage, Mean (n=3); read-out: SHR9146 concentration in Plasma
MEASUREMENT_TYPE: concentration at 6 h (ng/mL)
The reply should be a number in ng/mL, with the unit left off.

Ask | Would you mind telling me what concentration at 6 h value was observed for "OCCn1cc(-c2ccc(N3CCC([C@H]4c5c(F)cccc5-c5cncn54)CC3)cc2)cn1" ?
Reply | 471

====

# PROTOCOL_NOTES: Plasma pharmacokinetics of SHR9146 in mice (LC-MS/MS, non-compartmental analysis)
# Type: in vivo, ICR mice
# APPLIED_CONDITIONS: both sexes, ICR, mouse, plasma, oral, 40 mg/kg, 40 mg/kg i.g. single; 1 h; read-out: plasma drug concentration, mean (n=6)
MEASUREMENT_TYPE: concentration at 1 h (ng/mL)
The reply should be a number in ng/mL, with the unit left off.

Ask | Would you mind telling me what concentration at 1 h value was observed for "OCCn1cc(-c2ccc(N3CCC([C@H]4c5c(F)cccc5-c5cncn54)CC3)cc2)cn1" ?
Reply | 9980

====

# PROTOCOL_NOTES: Plasma pharmacokinetics of SHR9146 in mice (LC-MS/MS, non-compartmental analysis)
# Format: in vivo, ICR mice
# APPLIED_CONDITIONS: ICR, mouse, plasma, intravenous, 5 mg/kg, 5 mg/kg i.v.; 8 h; read-out: plasma drug concentration, individual mice #1-#6
MEASUREMENT_TYPE: concentration at 8 h (µg/mL)
The reply should be a number in µg/mL, with the unit left off.

Ask | Would you mind telling me what concentration at 8 h value was observed for "OCCn1cc(-c2ccc(N3CCC([C@H]4c5c(F)cccc5-c5cncn54)CC3)cc2)cn1" ?
Reply | 0.149

====

# PROTOCOL_NOTES: Tissue distribution of SHR9146 in mice after oral gavage of 40 mg/kg
# Format: in vivo, ICR mice
# APPLIED_CONDITIONS: female, ICR, mouse, uterus, po, 40 mg/kg, female, 1 h, 40 mg/kg oral gavage, Mean (n=3); read-out: SHR9146 concentration in Uterus
MEASUREMENT_TYPE: concentration at 1 h (ng/g)
The reply should be a number in ng/g, with the unit left off.

Ask | Would you mind telling me what concentration at 1 h value was observed for OCCn1cc(-c2ccc(N3CCC([C@H]4c5c(F)cccc5-c5cncn54)CC3)cc2)cn1 [SHR9146] ?
Reply | 10700

====

# PROTOCOL_NOTES: Tissue distribution of SHR9146 in mice after oral gavage of 40 mg/kg
# Format: in vivo, ICR mice
# APPLIED_CONDITIONS: male, ICR, mouse, liver, po, 40 mg/kg, male, 1 h, 40 mg/kg oral gavage, Mean (n=3); read-out: SHR9146 concentration in Liver
MEASUREMENT_TYPE: concentration at 1 h (ng/g)
The reply should be a number in ng/g, with the unit left off.

Ask | Would you mind telling me what concentration at 1 h value was observed for OCCn1cc(-c2ccc(N3CCC([C@H]4c5c(F)cccc5-c5cncn54)CC3)cc2)cn1 [SHR9146] ?
Reply | 20000

====

# PROTOCOL_NOTES: Plasma pharmacokinetics of SHR9146 in mice (LC-MS/MS, non-compartmental analysis)
# Assay type: in vivo, ICR mice
# APPLIED_CONDITIONS: both sexes, ICR, mouse, plasma, po, after oral dosing from 20 to 80 mg/kg; mouse plasma; read-out: Cmax, range over oral doses
MEASUREMENT_TYPE: Cmax

Ask | Would you mind telling me what Cmax value was observed for OCCn1cc(-c2ccc(N3CCC([C@H]4c5c(F)cccc5-c5cncn54)CC3)cc2)cn1 [SHR9146] ?
Reply | 8750 to 12900 ng/mL

====

# PROTOCOL_NOTES: Tissue distribution of SHR9146 in mice after oral gavage of 40 mg/kg
# Assay type: in vivo, ICR mice
# APPLIED_CONDITIONS: female, ICR, mouse, adrenal gland, po, 40 mg/kg, female, 6 h, 40 mg/kg oral gavage, Mean (n=3); read-out: SHR9146 concentration in Adrenal gland
MEASUREMENT_TYPE: concentration at 6 h (ng/g)
The reply should be a number in ng/g, with the unit left off.

Ask | Would you mind telling me what concentration at 6 h value was observed for OCCn1cc(-c2ccc(N3CCC([C@H]4c5c(F)cccc5-c5cncn54)CC3)cc2)cn1 [SHR9146] ?
Reply | 1880

====

# PROTOCOL_NOTES: Tissue distribution of SHR9146 in mice after oral gavage of 40 mg/kg
# Format: in vivo, ICR mice
# APPLIED_CONDITIONS: male, ICR, mouse, skeletal muscle, po, 40 mg/kg, male, 6 h, 40 mg/kg oral gavage, Mean (n=3); read-out: SHR9146 concentration in Skeletal muscle
MEASUREMENT_TYPE: concentration at 6 h
Could you kindly put the unit after your number?

Ask | Would you mind telling me what concentration at 6 h value was observed for "OCCn1cc(-c2ccc(N3CCC([C@H]4c5c(F)cccc5-c5cncn54)CC3)cc2)cn1" ?
Reply | 23 ng/g

====

# PROTOCOL_NOTES: Plasma pharmacokinetics of SHR9146 in mice (LC-MS/MS, non-compartmental analysis)
# Format: in vivo, ICR mice
# APPLIED_CONDITIONS: male, ICR, mouse, plasma, po, 40 mg/kg, 40 mg/kg i.g. single dose; male mice; plasma; read-out: t1/2 (converted)
MEASUREMENT_TYPE: half-life (h)
The reply should be a number in h, with the unit left off.

Ask | Would you mind telling me what half-life value was observed for "OCCn1cc(-c2ccc(N3CCC([C@H]4c5c(F)cccc5-c5cncn54)CC3)cc2)cn1" ?
Reply | 1.66

====

# PROTOCOL_NOTES: Tissue distribution of SHR9146 in mice after oral gavage of 40 mg/kg
# Format: in vivo, ICR mice
# APPLIED_CONDITIONS: female, ICR, mouse, kidney, po, 40 mg/kg, female, 3 h, 40 mg/kg oral gavage, Mean (n=3); read-out: SHR9146 concentration in Kidney
MEASUREMENT_TYPE: concentration at 3 h (ng/g)
The reply should be a number in ng/g, with the unit left off.

Ask | Would you mind telling me what concentration at 3 h value was observed for "OCCn1cc(-c2ccc(N3CCC([C@H]4c5c(F)cccc5-c5cncn54)CC3)cc2)cn1" ?
Reply | 12700

====

# PROTOCOL_NOTES: Tissue distribution of SHR9146 in mice after oral gavage of 40 mg/kg
# Type: in vivo, ICR mice
# APPLIED_CONDITIONS: male, ICR, mouse, brain, po, 40 mg/kg, male, 1 h, 40 mg/kg oral gavage, Mean (n=3); read-out: SHR9146 concentration in Brain
MEASUREMENT_TYPE: concentration at 1 h (ng/g)
The reply should be a number in ng/g, with the unit left off.

Ask | Would you mind telling me what concentration at 1 h value was observed for OCCn1cc(-c2ccc(N3CCC([C@H]4c5c(F)cccc5-c5cncn54)CC3)cc2)cn1 [SHR9146] ?
Reply | 1890
